assay: Exploration of solubility: 300 mg slurry in solvent (10 V) at 15~20° C.; format: physicochemical; settings: 15 °C, organic solvent or mixture, thermodynamic from solid; EtOH (10 V); 300 mg slurry at 15~20° C.
Assignment: determine reported solubility for the given compounds.
Answers are plain numbers, in mg/mL.

COMPOUND	DISPLAY_UNIT	solubility
COC(=O)CC[C@H](NC(=O)c1ccc(-n2ccnn2)cc1)C(=O)N1CCN(C)CC1	mg/mL	22.5

In: Consider the compound shown here: CN1CCN(C(=O)[C@H](CCC(=O)O)NC(=O)c2ccc(-n3ccnn3)cc2)CC1 What is its recorded solubility?
Out: 4

Data origin: patent US11390590B2
